Catalogue of compounds with associated inhibition at 10 µM
molecular target: UniProtKB P08684; experiment: Inhibition of human CYP3A4 at 10 uM; assay type: ADME
Sequence (P08684 whole entry): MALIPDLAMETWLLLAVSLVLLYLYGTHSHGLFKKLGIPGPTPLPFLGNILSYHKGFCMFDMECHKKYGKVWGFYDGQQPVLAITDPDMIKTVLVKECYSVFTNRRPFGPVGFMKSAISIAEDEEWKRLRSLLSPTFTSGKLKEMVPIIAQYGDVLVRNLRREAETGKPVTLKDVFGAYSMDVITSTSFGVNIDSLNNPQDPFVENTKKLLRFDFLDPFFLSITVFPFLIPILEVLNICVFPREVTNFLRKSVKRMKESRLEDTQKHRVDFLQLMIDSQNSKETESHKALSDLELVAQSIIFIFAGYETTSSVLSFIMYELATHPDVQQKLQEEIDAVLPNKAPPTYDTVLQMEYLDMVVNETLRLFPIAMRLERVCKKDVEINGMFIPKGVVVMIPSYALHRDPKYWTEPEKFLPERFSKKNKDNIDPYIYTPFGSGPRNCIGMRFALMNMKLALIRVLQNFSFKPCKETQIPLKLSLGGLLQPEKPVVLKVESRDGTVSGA
property: inhibition at 10 µM (%)

1. CCNCC(=O)N=S(C)(=O)c1ccc(C(=O)Nc2ccc(Cl)cc2C(=O)Nc2ccc(Cl)cn2)cc1 (configuration not stated)    27
2. CCN(CC)CC(=O)N=S(C)(=O)c1ccc(C(=O)Nc2ccc(Cl)cc2C(=O)Nc2ccc(Cl)cn2)cc1 (configuration not stated)    18

* * *

The following compounds each carry a recorded 2PT for Plasma.
property: 2PT (µM)

1) CS(=O)(=NC(=O)CNC1CCCC1)c1ccc(C(=O)Nc2ccc(Cl)cc2C(=O)Nc2ccc(Cl)cn2)cc1 (stereo not drawn)    2.26
2) CN(C)CCN=S(C)(=O)c1ccc(C(=O)Nc2ccc(Cl)cc2C(=O)Nc2ccc(Cl)cn2)cc1 (stereo not drawn)    1.14
3) CN1CCN(CC(=O)N=S(C)(=O)c2ccc(C(=O)Nc3ccc(Cl)cc3C(=O)Nc3ccc(Cl)cn3)cc2)CC1 (stereo not drawn)    2.03
4) CS(=O)(=NC(=O)CN1CCCCC1)c1ccc(C(=O)Nc2ccc(Cl)cc2C(=O)Nc2ccc(Cl)cn2)cc1 (stereo not drawn)    1.73
5) CN(C)CC(=O)N=S(C)(=O)c1ccc(C(=O)Nc2ccc(Cl)cc2C(=O)Nc2ccc(Cl)cn2)cc1 (stereo not drawn)    1.2
6) CN1CCCN(CC(=O)N=S(C)(=O)c2ccc(C(=O)Nc3ccc(Cl)cc3C(=O)Nc3ccc(Cl)cn3)cc2)CC1 (stereo not drawn)    1.82
7) CS(=O)(=O)N=S(C)(=O)c1ccc(C(=O)Nc2ccc(Cl)cc2C(=O)Nc2ccc(Cl)cn2)cc1 (stereo not drawn)    2.6
8) CS(=O)(=NCCN1CCCC1)c1ccc(C(=O)Nc2ccc(Cl)cc2C(=O)Nc2ccc(Cl)cn2)cc1 (stereo not drawn)    2.16
